Provide the recorded activity change, negative = cytotoxicity for the entries that follow.
Tested on: Es-2
Test: Primary qHTS to identify gynecologic anti-cancer compounds using libraries of approved drugs and bioactive compounds (AID 1345084); also: nearly all actives have a fitted effect of over 55% in size; as to activity change, negative = cytotoxicity: % is scaled to controls: 0 for no effect and ±100 for the full control effect
Conditions: Gynecologic cancer cell panel viability, ATPlite luminescence, 48 h; series mostly up to 57.5 µM
Inconclusive results are not listed. Calls of active or inactive are those of the source. Calls follow the shape of the dose curve; as a rule, active = well fitted cell-killing curve with a large enough effect; inconclusive = small, poorly fitted or top-dose-only effect, or effect the other way; inactive = flat fitted curve, though single readings scatter.

Prompt: Recall and state the measured activity change, negative = cytotoxicity for CC1OC(OC2C(O)COC(O[C@@H]3[C@@H](O)[C@@H](O)[C@H](OC4C(OC(=O)[C@]56CCC(C)(C)CC5C5=CCC7[C@@]8(C)C[C@H](O)[C@H](OC9OC(CO)C(O)C(O)C9O)[C@@](C)(CO)C8[C@H](O)C[C@@]7(C)[C@]5(C)CC6)OCC(O)C4O)O[C@H]3C)C2O)C(O)C(O)C1O (some centres not stated) .
Response: -27.5% [at 6.55 µM] (inactive)

Prompt: Recall and state the measured activity change, negative = cytotoxicity for CCC(C)C(=O)O[C@H]1[C@H](O)[C@@]2(COC(C)=O)C(CC1(C)C)C1=CCC3[C@@]4(C)CC[C@H](O[C@@H]5O[C@H](C(=O)O)[C@@H](O)[C@H](O)[C@H]5O)[C@@](C)(CO)C4CC[C@@]3(C)[C@]1(C)C[C@@H]2O (some centres not stated) .
Response: 5.26% [at 11.6 µM] (inactive)

---

Test system: OV90
Assay: Primary qHTS to identify gynecologic anti-cancer compounds using libraries of approved drugs and bioactive compounds (AID 1345084); also: nearly all actives have a fitted effect of over 55% in size
Details: Gynecologic cancer cell panel viability, ATPlite luminescence, 48 h; series mostly up to 57.5 µM
Records with an inconclusive call do not appear. Activity calls are given as the source filed them. The call rests on the fitted dose curve; in most records, active means well fitted cell-killing curve with a large enough effect; inconclusive means small, poorly fitted or top-dose-only effect, or effect the other way; inactive means flat fitted curve, though single readings scatter.

{"compound": "CC(=O)OC/C(=C/C(=O)O)CC[C@@H]1C(C=O)=CC[C@@H]2C(C)(C)CCC[C@@]12C", "outcome": "inactive"}
{"compound": "CC1(C)CN(C(=O)c2ccc(-c3cccc4nc(NC(=O)C5CC5)nn34)cc2)C1", "outcome": "inactive"}
{"compound": "COc1cc2nc(C3CC3)nc(N3CCN(c4ccccc4OC)CC3)c2cc1OC", "outcome": "inactive"}
{"compound": "COC(=O)C1=COC(O[C@@H]2O[C@H](CO[C@@H]3O[C@H](COC(=O)/C=C\\c4ccc(O)cc4)[C@@H](O)[C@H](O)[C@H]3O)[C@@H](O)[C@H](O)[C@H]2O)C2C(CO)=CCC12 (some centres undefined)", "outcome": "inactive"}

---

Test system: PA-1
Assay: Primary qHTS to identify gynecologic anti-cancer compounds using libraries of approved drugs and bioactive compounds (AID 1345084); also: nearly all actives have a fitted effect of over 55% in size
Conditions: Gynecologic cancer cell panel viability, ATPlite luminescence, 48 h; series mostly up to 57.5 µM
Inconclusive results are not listed. Active and inactive are the calls of the source. Calls follow the shape of the dose curve; as a rule, active = well fitted cell-killing curve with a large enough effect; inconclusive = small, poorly fitted or top-dose-only effect, or effect the other way; inactive = flat fitted curve, though single readings scatter.
Valid outcomes are listed here; reply with one: class 1 for active, class 0 for inactive

Prompt: Tell me the recorded outcome of this test for "COc1cc(C(C)C)c(Oc2cnc(N)nc2N)cc1I" .
Response: class 0

Prompt: Tell me the recorded outcome of this test for CCC(CC)C(=O)OC12C(OC(=O)C(C)C)C(C)C3(O)C(C=C(CO)CC4(O)C(=O)C(C)=CC43)C1C2(C)C (stereo not drawn) .
Response: class 0

Prompt: Tell me the recorded outcome of this test for "COc1ccc(C(=O)Nc2c(Cl)cncc2Cl)cc1OC1CCCC1" .
Response: class 0

Prompt: Tell me the recorded outcome of this test for "O=C(NCC1(c2nc(-c3ccccc3)cs2)CCOCC1)c1cccc(-c2noc(C(F)(F)F)n2)c1" .
Response: class 0

Prompt: Tell me the recorded outcome of this test for "CC(=O)O[C@H]1[C@@]2(O)C[C@H](C)[C@H](OC(=O)c3ccccc3)[C@@H]2[C@@H](OC(=O)CO)[C@]2(OC(C)=O)C[C@H]3C(=O)C(C)(C)C[C@@H]3[C@@]1(C)[C@H]2OC(C)=O" .
Response: class 0

Prompt: Tell me the recorded outcome of this test for "C=C1C(=O)O[C@@H]2/C=C(/C)[C@@H](OC(C)=O)C/C=C(\C)C[C@@H](OC(=O)/C(=C/CO)CO)[C@@H]12" .
Response: class 0

Prompt: Tell me the recorded outcome of this test for "CC(=O)NCc1cccc(OC[C@@H](O)CNCCc2ccc(NS(=O)(=O)c3ccccc3)cc2)c1" .
Response: class 0

Prompt: Tell me the recorded outcome of this test for "O=C(Nc1ccc2[nH]nc(-c3ccncc3)c2c1)[C@@H]1CCN(CC(=O)N2CCN(c3ccc(-c4ncccn4)cc3)CC2)C1" .
Response: class 0

Prompt: Tell me the recorded outcome of this test for "C=C1CCN([C@H](C)[C@](O)(Cn2cncn2)c2ccc(F)cc2F)CC1" .
Response: class 0

Prompt: Tell me the recorded outcome of this test for C=CCc1ccc(OC(C)Cc2ccc(OC)c(OC)c2)c(OC)c1 (stereo not drawn) .
Response: class 0

Prompt: Tell me the recorded outcome of this test for "Cc1ccc(-c2ncc[nH]2)cc1NC(=O)c1ccc(OCc2ccccn2)cc1" .
Response: class 0

Prompt: Tell me the recorded outcome of this test for "N#Cc1ccc(N2N=C3c4ccc(C(=O)O)cc4CC[C@@H]3[C@@H]2C2CCCC2)cc1Cl" .
Response: class 0

Prompt: Tell me the recorded outcome of this test for CC(=O)OC1CC2(C)C(CCC(C)C23Cc2c(O)cc(CO)c(C=O)c2O3)C(C)(C)C1O (stereo not drawn) .
Response: class 0

Prompt: Tell me the recorded outcome of this test for "CCOc1nc(NC(=O)Cc2cc(OC)ccc2OC)cc(N)c1C#N" .
Response: class 0

Prompt: Tell me the recorded outcome of this test for "O=S(=O)(c1ccccc1)N(CC(F)(F)F)c1ccc(C(O)(C(F)(F)F)C(F)(F)F)cc1" .
Response: class 0

Prompt: Tell me the recorded outcome of this test for "O=C(COc1ccc(C(=O)c2ccccc2)cc1)NC1CCN(Cc2ccccc2)CC1" .
Response: class 0

Prompt: Tell me the recorded outcome of this test for Cc1ccc(N2CCN(CCC3NC(=O)c4ccccc43)CC2)cc1C (stereo not drawn) .
Response: class 0

Prompt: Tell me the recorded outcome of this test for C=C1C(=O)OC2/C=C(\COC(C)=O)CC/C=C(\C=O)CC(OC(=O)C(C)CC)C12 (stereo not drawn) .
Response: class 1
